molecular target: gp120/CD4 (Homo sapiens); construct: recombinant, soluble four-domain CD4 (sCD4) expressed in insect cells; test: biochemical
pIC50: −log10 of the molar value.
EXPERIMENTAL ENDPOINT: pIC50

Q) Bench note: what pIC50 did O=C(O)C1=CC(=C(c2ccc(O)c(C(=O)O)c2)c2ccc(O)c(C(=O)O)c2)C=CC1=O show?
A) ~5.63
